- assay: Antioxidant activity assessed as trolox equivalent of AAPH radical scavenging activity at 10 uM after 2 mins by ORAC-RCoo assay
- Format: physicochemical
measurement label: Activity (µM)

Worked examples follow.
CCCCC[C@H](C)O[C@@H]1O[C@H](CO[C@@H]2OC[C@@H](O)[C@H](O)[C@H]2O)[C@@H](O)[C@H](O)[C@H]1O ... 2.26
CC(C)O[C@@H]1O[C@H](CO[C@@H]2OC[C@@H](O)[C@H](O)[C@H]2O)[C@@H](O)[C@H](O)[C@H]1O ... 2.13
C=CCc1ccc(O)c(O)c1 [HYDROXYCHAVICOL] ... 16.26
COc1cc(O[C@@H]2O[C@H](CO)[C@@H](O)[C@H](O)[C@H]2O)ccc1O [TACHIOSIDE] ... 1.65
CC(C)O[C@@H]1O[C@H](CO)[C@@H](O)[C@H](O)[C@H]1O ... 1.79

(A) CCCCC[C@H](C)O[C@@H]1O[C@H](CO[C@@H]2OC[C@](O)(CO)[C@H]2O)[C@@H](O)[C@H](O)[C@H]1O
(B) OC[C@@]1(O)CO[C@@H](OC[C@H]2O[C@@H](OCc3ccccc3)[C@H](O)[C@@H](O)[C@@H]2O)[C@@H]1O
(C) COc1cc(C[C@@H](O)CO)ccc1O
Exercise: Sequence the entries by Activity, beginning with the highest number. Provide the ranking by listing each label in its place in the requested order.
Solution: C, A, B

* * *

- assay: Inhibition of alpha-glucosidase (unknown origin) using 3 mM p-NPG solution at 50 uM relative to control
- experimental conditions: Rattus norvegicus
measurement label: inhibition (%)

CC(C)O[C@@H]1O[C@H](CO[C@@H]2OC[C@@H](O)[C@H](O)[C@H]2O)[C@@H](O)[C@H](O)[C@H]1O ... 7.49
CC1=CC(=O)CC(C)(C)[C@@]1(O)CC[C@@H](C)O[C@@H]1O[C@H](CO)[C@@H](O)[C@H](O)[C@H]1O ... 6.9
OC[C@@]1(O)CO[C@@H](OC[C@H]2O[C@@H](OCc3ccccc3)[C@H](O)[C@@H](O)[C@@H]2O)[C@@H]1O ... 7.93

* * *

- assay: Antioxidant activity assessed as […] reduction power at 10 uM after 1 hr by cupric ion reducing antioxidant capacity assay
- Format: physicochemical
measurement label: Activity (µM)

CCCCC[C@H](C)O[C@@H]1O[C@H](CO[C@@H]2OC[C@@H](O)[C@H](O)[C@H]2O)[C@@H](O)[C@H](O)[C@H]1O ... 0.59
CC(C)O[C@@H]1O[C@H](CO)[C@@H](O)[C@H](O)[C@H]1O ... 0.54
COc1cc(C[C@@H](O)CO)ccc1O ... 43.82
COc1cc(O[C@@H]2O[C@H](CO)[C@@H](O)[C@H](O)[C@H]2O)ccc1O [TACHIOSIDE] ... 0.63
C=CCc1ccc(O[C@@H]2O[C@H](CO)[C@@H](O)[C@H](O)[C@H]2O)c(O[C@@H]2O[C@H](CO)[C@@H](O)[C@H](O)[C@H]2O)c1 ... 0.65

(A) CC(C)O[C@@H]1O[C@H](CO[C@@H]2OC[C@@H](O)[C@H](O)[C@H]2O)[C@@H](O)[C@H](O)[C@H]1O
(B) COc1cc(C[C@@H](O)CO)ccc1O[C@@H]1O[C@H](CO)[C@@H](O)[C@H](O)[C@H]1O
Exercise: Decide: A or B , by lowest recorded Activity. State the label of the item chosen.
Solution: A

(P) CCCCC[C@H](C)O[C@@H]1O[C@H](CO[C@@H]2OC[C@](O)(CO)[C@H]2O)[C@@H](O)[C@H](O)[C@H]1O
(Q) CC1=CC(=O)CC(C)(C)[C@@]1(O)CC[C@@H](C)O[C@@H]1O[C@H](CO)[C@@H](O)[C@H](O)[C@H]1O
(R) C=CCc1ccc(O)c(O)c1 [HYDROXYCHAVICOL]
(S) CCCCO[C@@H]1O[C@H](CO)[C@@H](O)[C@H](O)[C@H]1O
Exercise: Would you mind ranking these molecules by ascending Activity? Provide the ranking by listing each label in its place in the requested order.
Solution: Q, P, S, R
